molecular target: PKM2 (Homo sapiens, UniProt P14618); experiment: PKM2 Assay (activation, LDH-coupled NADH absorbance at 340 nm); assay type: biochemical; conditions: activation of PKM2; PKM2 50 ng/well, ADP 0.7 mM, PEP 0.15 mM, room temperature (25° C.); read-out: AC50
Sequence (P14618 whole entry): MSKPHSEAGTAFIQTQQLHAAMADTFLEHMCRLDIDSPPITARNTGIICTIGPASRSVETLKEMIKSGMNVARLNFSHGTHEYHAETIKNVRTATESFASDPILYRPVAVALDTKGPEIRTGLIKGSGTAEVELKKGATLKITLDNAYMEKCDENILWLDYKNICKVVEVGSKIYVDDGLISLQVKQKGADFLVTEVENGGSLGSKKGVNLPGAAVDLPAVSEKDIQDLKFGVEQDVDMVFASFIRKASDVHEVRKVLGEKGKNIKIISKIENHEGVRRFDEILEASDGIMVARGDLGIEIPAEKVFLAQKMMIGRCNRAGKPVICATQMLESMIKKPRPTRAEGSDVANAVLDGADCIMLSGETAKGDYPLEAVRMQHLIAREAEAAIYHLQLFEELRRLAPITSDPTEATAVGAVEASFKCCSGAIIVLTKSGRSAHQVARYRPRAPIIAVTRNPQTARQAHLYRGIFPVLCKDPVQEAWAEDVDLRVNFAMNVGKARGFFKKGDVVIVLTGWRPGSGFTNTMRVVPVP
PROPERTY_NAME: AC50

For orientation, consider the following solved cases.
[[record]]
test_smiles = "O=C(Nc1ccccn1)NC1CN(C(=O)c2ccc(NS(=O)(=O)c3cccc4cccnc34)cc2)C1"
measured_on = "PKM2 (Homo sapiens, UniProt P14618)"
property_name = "AC50"
observed_result = "100 to 1000 nM"

[[record]]
test_smiles = "COc1ncccc1NC1CN(C(=O)c2ccc(NS(=O)(=O)c3cccc4cccnc34)c(C)c2)C1"
measured_on = "PKM2 (Homo sapiens, UniProt P14618)"
property_name = "AC50"
observed_result = "100 to 1000 nM"

[[record]]
test_smiles = "Cc1cc(C(=O)N2CC(C)(O)C2)ccc1NS(=O)(=O)c1cccc2cccnc12"
measured_on = "PKM2 (Homo sapiens, UniProt P14618)"
property_name = "AC50"
observed_result = "1000 to 10000 nM"

[[record]]
test_smiles = "CN(c1ccccc1)C1CN(C(=O)c2ccc(NS(=O)(=O)c3cccc4cccnc34)cc2)C1"
measured_on = "PKM2 (Homo sapiens, UniProt P14618)"
property_name = "AC50"
observed_result = "< 100 nM"

[[record]]
test_smiles = "O=C(NC1CN(C(=O)c2ccc(NS(=O)(=O)c3cccc4cccnc34)cc2)C1)c1ccccn1"
measured_on = "PKM2 (Homo sapiens, UniProt P14618)"
property_name = "AC50"
observed_result = "1000 to 10000 nM"


Q: Field request: AC50 | item: CC1(O)CN(C(=O)c2ccc(NS(=O)(=O)c3cccc4cccnc34)c(F)c2)C1
Result: > 10000 nM

Q: How about this compound: COc1ccccc1NC1CN(C(=O)c2ccc(NS(=O)(=O)c3cccc4cccnc34)c(F)c2)C1
Result: 100 to 1000 nM

Q: How about this compound: O=C(c1ccc(NS(=O)(=O)c2cccc3cccnc23)cc1)N1CC(OCc2ccccc2)C1
Result: 100 to 1000 nM

Q: How about this compound: O=C(c1ccc(NS(=O)(=O)c2cccc3cccnc23)cc1)N1CC(Nc2ccccc2)C1
Result: < 100 nM

Value source: patent US9221792B2
